Biological target: T1, FZD8 cysteine-rich domain (CRD), MYC-tagged and GPI-anchored on CHO cells (human, UniProt Q498S8 31-155 (rat entry), GPI anchor)
T1 construct: also called FZD8 CRD; CHO-myc-FZDGPI; not shown: MYC tag and GPI anchor signal
T1 sequence: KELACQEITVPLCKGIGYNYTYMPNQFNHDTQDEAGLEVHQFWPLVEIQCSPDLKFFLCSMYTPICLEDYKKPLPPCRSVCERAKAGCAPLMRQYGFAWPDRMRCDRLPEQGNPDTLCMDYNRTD
Test: flow cytometry, CHO-CRD cells;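 also: flow cytometry of Fab binding to CHO cells overexpressing a Frizzled CRD, with binding defined as median fluorescence over twice that of CHO cells lacking any Frizzled CRD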
Reported median fluorescence is given for each of the following binders.
Hey, just send me the number, nothing else.

Item under review: Fab-2936 (Fab, V domains shown, Fab; also called Fv-2936) VH: EVQLVESGGGLVQPGGSLRLSCAASGFNISYYYMHWVRQAPGKGLEWVASIYSSSGSTSYADSVKGRFTISADTSKNTAYLQMNSLRAEDTAVYYCARAAMDYWGQGTLVTVSS VL: DIQMTQSPSSLSASVGDRVTITCRASQSVSSAVAWYQQKPGKAPKLLIYSASSLYSGVPSRFSGSRSGTDFTLTISSLQPEDFATYYCQQWYAASLITFGQGTKVEIK . Reported median fluorescence? 7.04

Which median fluorescence is reported for this binder? Fab-2923 (Fab, V domains shown, Fab; also called Fv-2923) VH: EVQLVESGGGLVQPGGSLRLSCAASGFNLYYYYMHWVRQAPGKGLEWVASIYSSSGSTSYADSVKGRFTISADTSKNTAYLQMNSLRAEDTAVYYCARGAMDYWGQGTLVTVSS VL: DIQMTQSPSSLSASVGDRVTITCRASQSVSSAVAWYQQKPGKAPKLLIYSASSLYSGVPSRFSGSRSGTDFTLTISSLQPEDFATYYCQQWYGYSALITFGQGTKVEIK 11.9

Quick one: median fluorescence of Fab-2906 (Fab, V domains shown, Fab; also called Fv-2906) VH: EVQLVESGGGLVQPGGSLRLSCAASGFNFSSSSIHWVRQAPGKGLEWVAYISSSYGYTYYADSVKGRFTISADTSKNTAYLQMNSLRAEDTAVYYCARTVRGSKKPYFSGWAMDYWGQGTLVTVSS VL: DIQMTQSPSSLSASVGDRVTITCRASQSVSSAVAWYQQKPGKAPKLLIYSASSLYSGVPSRFSGSRSGTDFTLTISSLQPEDFATYYCQQWSWGFLITFGQGTKVEIK ? 10.1

meta.source: patent US20210253718A1
